Cited source for all entries: patent US6846840B2

- Test system: RENAL cancer cell lines
- conditionParameters: log of concentration causing 50% lethality; arithmetic average of six to eight renal cell lines
Log LC50 values for the compounds below.
Reply numerically in moles/liter, unit not repeated.

Looking up CC1=C(N2CC2)C(=O)c2[nH]c3c(c2C1=O)CCC3=O [Cyclopent[b]indole 3e] , I see its Log LC50 listed as −5.34

Looking up CC(=O)OC1CCc2c1[nH]c1c2C(=O)C(C)=C(N2CC2)C1=O (stereo not shown) [Cyclopent[b]indole 3c] , I see its Log LC50 listed as −4.72

Looking up CC(=O)OCc1[nH]c2c(c1C)C(=O)C(N1CC1)=C(C)C2=O , I see its Log LC50 listed as −4.54

Looking up CC1=C(N2CC2)C(=O)c2[nH]c(CO)c(C)c2C1=O , I see its Log LC50 listed as −4.23

Looking up COC1CCc2c1[nH]c1c2C(=O)C(C)=C(N2CC2)C1=O (stereo not shown) [Cyclopent[b]indole 3d] , I see its Log LC50 listed as −4.58

Looking up CC(=O)OCc1[nH]c2c(c1C)C(=O)C(C)=C(N1CC1)C2=O , I see its Log LC50 listed as −4.14

---

- Test system: OVARIAN cancer cell lines
- conditionParameters: log of concentration causing 50% lethality; arithmetic average of six to eight ovarian cell lines
measuredProperty: Log LC50 (moles/liter)
Reply numerically in moles/liter, unit not repeated.

See these solved cases before continuing.
| molecule | Log LC50 [moles/liter] |
| --- | --- |
| CC1=C(N2CC2)C(=O)c2[nH]c3c(c2C1=O)CCC3O (stereo not shown) [Cyclopent[b]indole 3b] | −4.05 |
| CC(=O)OC1CCc2c1[nH]c1c2C(=O)C(C)=C(N2CC2)C1=O (stereo not shown) [Cyclopent[b]indole 3c] | −4.366 |
| CC(=O)OCc1[nH]c2c(c1C)C(=O)C(N1CC1)=C(C)C2=O [Indole 1c] | −4.46 |
| CC(=O)OC1CCc2c3c(n(C(C)=O)c21)C(=O)C(N1CC1)=C(C)C3=O (stereo not shown) [Cyclopent[b]indole 14] | −4.18 |

Note: attention shifts to another entry.
Looking up CC1=C(N2CC2)C(=O)c2[nH]c3c(c2C1=O)CCC3=O [Cyclopent[b]indole 3e] , I see its Log LC50 listed as −4.86

---

- Tested on: NSC LUNG cancer cell lines
- conditionParameters: log of concentration causing 50% lethality; arithmetic average of six to eight NSC lung cell lines
Log LC50 values for the compounds below.
Reply numerically in moles/liter, unit not repeated.

See these solved cases before continuing.
| compound | Log LC50, moles/liter |
| --- | --- |
| CC(=O)OC1CCc2c3c(n(C(C)=O)c21)C(=O)C(N1CC1)=C(C)C3=O (centres unmarked) [Cyclopent[b]indole 14] | −4.42 |
| CC(=O)OC1CCc2c1[nH]c1c2C(=O)C(C)=C(N2CC2)C1=O (centres unmarked) [Cyclopent[b]indole 3c] | −4.65 |
| CC1=C(N2CC2)C(=O)c2c([nH]c(CO)c2C)C1=O | −4.37 |
| CC1=C(N2CC2)C(=O)c2c([nH]c(C)c2C)C1=O | −4.29 |

Looking up CC1=C(N2CC2)C(=O)c2[nH]c3c(c2C1=O)CCC3=O [Cyclopent[b]indole 3e] , I see its Log LC50 listed as −5.37
